Target: GDP-bound KRAS wild-type protein (Homo sapiens)
Sequence (P01116 whole entry): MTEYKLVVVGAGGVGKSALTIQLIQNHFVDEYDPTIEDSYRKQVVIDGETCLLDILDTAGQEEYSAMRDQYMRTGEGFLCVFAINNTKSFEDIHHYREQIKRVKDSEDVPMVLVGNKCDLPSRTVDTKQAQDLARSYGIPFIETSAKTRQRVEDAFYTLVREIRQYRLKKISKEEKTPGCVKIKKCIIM
Assay: Binding to KRAS by surface plasmon resonance (SPR), Single Cycle Kinetics
Conditions: SPR Single Cycle Kinetics, GDP-bound KRAS wild-type protein, 1:1 binding model; read-out: KRAS KD
Where a SMILES comes first, the peptide text is derived from it. Bridges are numbered along the chain shown (N, C = ends). [ ]: non-standard residue; d: D form. The star is where a group is joined. hPhe(3,5-F2-4-CF3) = N[C@@H](CCc1cc(F)c(C(F)(F)F)c(F)c1)C(=O)O; hPhe(3-Cl-4-CF3) = N[C@@H](CCc1ccc(C(F)(F)F)c(Cl)c1)C(=O)O; NPrPhe(4-CF3) = CCCN[C@@H](Cc1ccc(C(F)(F)F)cc1)C(=O)O; NEtPhe(4-Me) = CCN[C@@H](Cc1ccc(C)cc1)C(=O)O; NMeGly(cPent) = CN[C@H](C(=O)O)C1CCCC1; NMeD = CN[C@@H](CC(=O)O)C(=O)O; NMeL = CN[C@@H](CC(C)C)C(=O)O; αMeV = CC(C)[C@](C)(N)C(=O)O; Morpholide = C1CN(*)CCO1; NMeA = CN[C@@H](C)C(=O)O; Ac5c = NC1(C(=O)O)CCCC1; Aze = O=C(O)[C@@H]1CCN1; NEtG = CCNCC(=O)O; Sar = CNCC(=O)O
Recorded measurements of Kd, one per entry
Give the quantity in nM, number only.

Solved cases (4 shown):
COMPOUND | Kd / nM
CCO[C@@H]1C[C@H]2C(=O)NC3(CC=CC3)C(=O)N(C)[C@@H](C3CCCC3)C(=O)N(C)[C@H](C(=O)N(C)C)CC(=O)N(C)[C@@H](C)C(=O)N[C@@H]([C@@H](C)CC)C(=O)N(C)CC(=O)N(C)[C@H]3CCCCCN(C3=O)[C@@H](Cc3ccc(C(F)(F)F)cc3)C(=O)N(C)CC(=O)N[C@@H](CCc3cc(F)c(C(F)(F)F)c(F)c3)C(=O)N2C1 | 0.44
CC[C@H](C)[C@@H]1NC(=O)[C@H](CC(C)C)N(C)C(=O)C[C@@H](C(=O)N2CCOCC2)N(C)C(=O)[C@H](C2CCCC2)N(C)C(=O)C2(CCCC2)NC(=O)[C@@H]2CCCN2C(=O)[C@H](CCc2ccc(C(F)(F)F)c(Cl)c2)NC(=O)CN(CC)C(=O)[C@H](Cc2ccc(C)cc2)N(CC)C(=O)[C@@H]2CCN2C(=O)[C@H](C)N(C)C1=O [PP0006] ([NMeL]I[NMeA][Aze][NEtPhe(4-Me)][NEtG][hPhe(3-Cl-4-CF3)]P[Ac5c][NMeGly(cPent)][NMeD]-Morpholide; lactam N-11) | 1.5
CC(C)C[C@H]1C(=O)N[C@@H](C2CCC2)C(=O)N(C)CC(=O)N(C)[C@H]2CCCCCN(C2=O)[C@@H](Cc2ccc(C(F)(F)F)cc2)C(=O)N(C)CC(=O)N[C@@H](CCc2cc(F)c(C(F)(F)F)c(F)c2)C(=O)N2CCC[C@H]2C(=O)NC2(CCCC2)C(=O)N(C)[C@@H](C2CCCC2)C(=O)N(C)[C@H](C(=O)N2CCOCC2)CC(=O)N1C | 2.8
CC[C@H](C)[C@@H]1NC(=O)[C@H](COC)N(C)C(=O)C[C@@H](C(=O)N(C)C)N(C)C(=O)[C@H](C2CCCC2)N(C)C(=O)C2(CC(C)(C)C2)NC(=O)[C@@H]2C[C@@H](OC3CCC3)CN2C(=O)[C@H](CCc2ccc(Cl)c(Cl)c2)NC(=O)CN(C)C(=O)[C@H](CC2CCC(F)(F)CC2)N2CC/C=C\C[C@@H](C2=O)N(C)C(=O)CN(C2CC2)C1=O | 1.3

# Kd of CCCN1C(=O)CN(C)C(=O)CN(C)C(=O)[C@H]([C@@H](C)CC)NC(=O)[C@H](CC(C)C)N(C)C(=O)C[C@@H](C(=O)N2CCOCC2)N(C)C(=O)[C@H](C2CCCC2)N(C)C(=O)[C@](C)(C(C)C)NC(=O)[C@@H]2CCCN2C(=O)[C@H](CCc2cc(F)c(C(F)(F)F)c(F)c2)NC(=O)CN(C)C(=O)[C@@H]1Cc1ccc(C(F)(F)F)cc1 [PP0756] ([NMeL]I[Sar][Sar][NPrPhe(4-CF3)][Sar][hPhe(3,5-F2-4-CF3)]P[αMeV][NMeGly(cPent)][NMeD]-Morpholide; lactam N-11) = 0.87
